Property: growth inhibition; scope: individual compounds
Experiment: NCI Yeast Anticancer Drug Screen. Data for the rad50 strain (AID 155);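 also: 0% = growth of vehicle-only cultures of the same strain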
Conditions: S. cerevisiae rad50 strain growth inhibition; at 50.0 µM; hits give high values
The panel holds about 79,000 compounds, 15% with a hit somewhere; the sample as a whole holds those more often. Activity calls are given as the source filed them. Rule as the data show it: active = growth inhibition above about 70%; inactive = the rest.

> print(dat)
                                   compound           property        test.result
1  CC1(O)CC2(O)C=CC3=C(C(=O)c4cccc(O)c4C3=O)C2(O)C(=O)C1O (stereo not drawn)  growth inhibition   14.2% (inactive)
2  CC(=O)c1ccc(NC(=O)CSc2nc(C)nc3c2sc(=S)n3-c2ccccc2)cc1  growth inhibition  -15.1% (inactive)
3  O=C(O)C(O)c1c[nH]c2ccccc12 (stereo not drawn)  growth inhibition  -4.85% (inactive)
4        O=C(NO)c1c(F)c(F)c(C(=O)NO)c(F)c1F  growth inhibition   -2.5% (inactive)
5  Cc1cccc(Nc2nnc(Nc3cccc(C)n3)c3ccccc23)n1  growth inhibition  -2.15% (inactive)

Provide one value: measured growth inhibition of Cc1c(C(=O)O)[nH]c2c(Cl)ccc(C)c2c1=O
-34.2% (inactive)

Provide one value: measured growth inhibition of CCOc1ccc(Nc2ncnc3sc4c(c23)CCCC4)cc1
10.3% (inactive)

Provide one value: measured growth inhibition of CC(=O)OC1C[C@@](C)(O)[C@@]23O[C@@H]2[C@@H]2O[C@]2(C)C3C2OC(=O)C(C)[C@H]12 (stereo partly drawn)
-0.25% (inactive)

* * *

Property: growth inhibition; scope: individual compounds
Experiment: NCI Yeast Anticancer Drug Screen. Data for the sgs1 mgt1 strain (AID 161);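 also: 0% = growth of cultures given vehicle only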
Details: S. cerevisiae sgs1 mgt1 strain, at 50.0 µM, hits give high values
Method: Growth inhibition of yeast strains with defined genetic alterations is measured as a screen for potential anti-cancer activity. Selected strains with alterations in DNA damage repair or cell cycle control were exposed to compounds and growth inhibition was measured relative to vehicle treated controls. The strain used in this assay is sgs1 mgt1
Compounds without any hit were thinned out: in the full panel of roughly 79,000, 15% have a hit.
Form entry: value (%) — number only.

> print(dat)
                                   compound  test.result
1  c1ccc(N2N=NC3C4CC(C5COCC54)C32)cc1 (stereo not given)        -24.9
2  CC(=O)OCC1OC(n2c3c(cc(C#N)c2=S)CCCCCC3)C(OC(C)=O)C(OC(C)=O)C1OC(C)=O (stereo not given)         12.1
3  Cn1c2ccc(Br)cc2c2cc(Br)cc([N+](=O)[O-])c21         14.9

Provide one value: measured growth inhibition of O=C(OCCc1ccccc1)C(O)c1ccccc1 (stereo not given)
3

Provide one value: measured growth inhibition of COc1ccc(NC(=O)CC/C(CC(=O)c2ccco2)=N/Nc2ccc([N+](=O)[O-])cc2[N+](=O)[O-])cc1
-0.05

Provide one value: measured growth inhibition of N#CCCSc1nnc(N)s1
-8.65

Provide one value: measured growth inhibition of O=C(N/N=C\c1ccncc1)Nc1ccc(N=Nc2ccccc2)cc1
17.6

Provide one value: measured growth inhibition of N=C(N)/N=C(/C=C/c1ccccc1)CC1OC(=O)c2ccccc21 (stereo not given)
-22.6

* * *

Property: growth inhibition; scope: individual compounds
Assay: NCI Yeast Anticancer Drug Screen. Data for the mlh1 rad18 strain (AID 175)
Conditions: S. cerevisiae mlh1 rad18 strain growth inhibition; at 50.0 µM; hits give high values
The panel holds about 79,000 compounds, 15% with a hit somewhere; the sample as a whole holds those more often.
Form entry: value (%) — number only.

Example compounds with recorded growth inhibition:
> print(dat)
                                   compound           property  test.result
1  O=C1c2ccccc2C(=O)N1CC(O)CCl (stereo unspecified)  growth inhibition        -26.5
2                         CCNc1ncnc2c1cnn2C  growth inhibition         -8.4
3  CSC(C(OC(C)=O)C(OC(C)=O)C(OC(C)=O)C(COC(C)=O)OC(C)=O)n1cnc2c(=S)nc[nH]c21 (stereo unspecified)  growth inhibition         1.95
4                                COCOC(C)=O  growth inhibition          1.4
5          O=C1NC(=S)N/C1=C/c1ccc2c(c1)CCC2  growth inhibition         12.7
6  CC(=O)OC1CCC2(C)C(CCC3C2CCC2(C)C3CCC2C(C)(C)O)C1 (stereo unspecified)  growth inhibition         20.6

Provide one value: measured growth inhibition of CC1CCc2c(O)ccc(O)c21 (stereo unspecified)
8.1

Provide one value: measured growth inhibition of CCCCOB(OCCCC)Oc1c(C(C)(C)C)cccc1C(C)(C)C
3.75

Provide one value: measured growth inhibition of Cc1ccc2[nH]c3c(ncc4[nH]c5ccccc5c43)c2c1
62

Provide one value: measured growth inhibition of C#CCN(Cc1ccc2nc(-c3ccccc3)c(N)nc2c1)c1cc(OC)c(OC)c(OC)c1
30.1

Provide one value: measured growth inhibition of CCCCCCCCNC(=O)/C(=C\c1ccc(/C=C(/NC(=O)c2ccccc2)C(=O)NCCCCCCCC)cc1)NC(=O)c1ccccc1
-4

* * *

Assay: NCI Yeast Anticancer Drug Screen. Data for the mec2-1 strain (AID 157)
Conditions: S. cerevisiae mec2-1 strain, at 50.0 µM, hits give high values
About 79,000 compounds went through this panel and 15% of them were active in at least one assay; those are over-represented in the sample as a whole. The source made the active and inactive calls. Rule as the data show it: active = growth inhibition above about 70%; inactive = the rest.
property: growth inhibition

Provide one value: measured growth inhibition of NC1C([O-])OC(CO)C(O)C1O.O=C1OC(C(O)CO)C([O-])=C1[OH2+].[Cu+2] (centres undefined)
-0.15% (inactive)

Provide one value: measured growth inhibition of NCCNC(=O)Cc1cccc2ccccc12
-48% (inactive)

Provide one value: measured growth inhibition of c1ccc2cc(N=NNc3ccc4ccccc4c3)ccc2c1
-4.1% (inactive)

Provide one value: measured growth inhibition of COc1cc(C2c3cc4c(cc3OC(C)(OC)C2C(C)=O)OCO4)cc(OC)c1O (centres undefined)
-6.25% (inactive)

Provide one value: measured growth inhibition of C=C1C(O)CC2C(O)C3(C)CCC(C)(C)C3C12O (centres undefined)
1.2% (inactive)

Provide one value: measured growth inhibition of C=CCOC(=O)CCC(CCC(=O)OCC=C)C(C)=O
-19.4% (inactive)

Provide one value: measured growth inhibition of Cc1ccc2c(=O)cc(-c3ccccc3)[nH]c2n1
-57% (inactive)

Provide one value: measured growth inhibition of CCCCCCCCCO/N=C\c1c2c(O)c3c(O)c(C)c4c(c3c1O)C(=O)C(C)(O/C=C\C(OC)C(C)C(OC(C)=O)C(C)C(O)C(C)C(O)C(C)/C=C\C=C(\C)C(=O)N2)O4 (centres undefined)
19.9% (inactive)

Provide one value: measured growth inhibition of CC(=O)Nc1nnc(S(C)(=O)=O)s1
-29% (inactive)

Provide one value: measured growth inhibition of NC(=O)N1CCCCC1
-6.6% (inactive)

Provide one value: measured growth inhibition of CCOC(=O)C(CN)c1ccccc1 (centres undefined)
-9.5% (inactive)

Provide one value: measured growth inhibition of CCc1nc2c(c(=O)n(C)c(=O)n2C)n1C
-4.15% (inactive)

Provide one value: measured growth inhibition of N/N=C(/C(=O)Nc1cccc(Cl)c1)C(C(=O)c1ccc(O)cc1O)C1OC(=O)c2ccccc21 (centres undefined)
-14.3% (inactive)

Provide one value: measured growth inhibition of CCOCCOC(=O)Nc1ccc(C)c(NC(=O)OCCOCC)c1
-18.8% (inactive)

Provide one value: measured growth inhibition of CC(C)=C1CC(=O)NC1=O
17.1% (inactive)

Provide one value: measured growth inhibition of CCCCCCCCCCCCC1CC(=O)OC1=O (centres undefined)
-15.4% (inactive)

Provide one value: measured growth inhibition of CCOC(=O)C(C=C(C)C)(CC)C(=O)OCC
-17% (inactive)

Provide one value: measured growth inhibition of CN(Cc1cnc2nc(N)nc(N)c2n1)c1ccc(C(=O)NC(CCC(=O)NC(CCC(=O)O)C(=O)O)C(=O)O)cc1 (centres undefined)
20.6% (inactive)

Provide one value: measured growth inhibition of CC(NC(=O)c1ccccc1)c1ccc[nH]1 (centres undefined)
-9.2% (inactive)

Provide one value: measured growth inhibition of N#Cc1[nH]c(=O)n(-c2ccc(Cl)cc2)c1N
-58.6% (inactive)

Provide one value: measured growth inhibition of S=C(Nc1cccc2ccccc12)N1CCCCC1
39% (inactive)

* * *

Experiment: NCI Yeast Anticancer Drug Screen. Data for the sgs1 mgt1 strain (AID 161);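 also: 0% = growth of cultures given vehicle only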
Details: S. cerevisiae sgs1 mgt1 strain, at 50.0 µM, hits give high values
This is part of a sample that, as a whole, favours compounds with a hit. Of some 79,000 tested, about 15% had one in any assay.
property: growth inhibition (%)
Form entry: value (%) — number only.

Example compounds with recorded growth inhibition:
> print(dat)
                                   compound           property  readout.unit  test.result
1  CC1=NN(C(=O)c2ccc(Cl)cc2)C(=O)/C1=C/c1ccc(Cl)cc1  growth inhibition             %        -69.2
2                         NCCCNC/C=C/CNCCCN  growth inhibition             %          2.7
3        COc1ccc(NC(=S)N(CCC#N)C2CCCCC2)cc1  growth inhibition             %           -3

Provide one value: measured growth inhibition of COC(=O)C1(CC(=O)/C=C/c2ccccc2)NC(=S)NC(=O)C1C#N (stereo unspecified)
-8.4

Provide one value: measured growth inhibition of CC(=O)Oc1nnc(OC(C)=O)c2cc(N)ccc12
4.45

Provide one value: measured growth inhibition of Clc1ccc(Cl)s1
20.3

Where do the numbers come from? From PubChem BioAssay (NCI).
